Target: T1, biotinylated α-cobratoxin from Naja kaouthia (Naja kaouthia, biotin through amine coupling (NHS-PEG4-Biotin), sites not stated)
T1 chain: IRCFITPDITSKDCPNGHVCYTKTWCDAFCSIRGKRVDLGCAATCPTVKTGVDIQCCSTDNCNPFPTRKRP
Assay: BLI
Settings: both partners purified
Parameter Measured: kon (M⁻¹ s⁻¹)
Number only, in M⁻¹ s⁻¹; omit the unit.

Input: What does the record list as kon for G09 Fab (Fab, V domains shown) VH: QVQLVQSGAEVKKPGSSVKVSCKASGGTFSSYAISWVRQAPGQGLEWMGGIIPIFGTANYAQKFQGRVTITADESTSTAYMELRSLRSDDTAVYYCARDNLGYCSGGSCYSDYYYYYMDVWGQGTLVTVSS VL: SYELTQPPSVSVAPGRTATITCEGDNIGQQIVHWYRQKSDQAPVVVVYDGSRRPSGIPERFSGSNSGNTATLTISRVEAGDEADYYCQVWDITSDHVVFGGGTQLTVL ?
Output: 71000

Input: What does the record list as kon for E01 Fab (Fab, V domains shown) VH: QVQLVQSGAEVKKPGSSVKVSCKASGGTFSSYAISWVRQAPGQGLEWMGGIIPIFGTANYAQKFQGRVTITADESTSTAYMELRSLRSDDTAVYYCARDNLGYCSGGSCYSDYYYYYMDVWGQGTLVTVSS VL: NFMLTQPRSVSESPGKTVTISCTRSSGSIGSDYVHWYQQRPGSSPTTVIYEDNRRPSGVPDRFSGSIASSANSASLTISGLRPEDEADYYCQSYDSTTNHVVFGGGTKVTVL ?
Output: 54000

Input: What does the record list as kon for B11 Fab (Fab, V domains shown) VH: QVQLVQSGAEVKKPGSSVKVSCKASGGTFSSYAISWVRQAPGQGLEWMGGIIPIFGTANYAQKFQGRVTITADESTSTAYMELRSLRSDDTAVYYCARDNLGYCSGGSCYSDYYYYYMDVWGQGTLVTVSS VL: SYELTQPPSVSVAPGQTATITCGGHNIGSNIVHWYHQKPGQAPELVISHNTNRPSGIPERFSGSNSGSTATLTISRVEAVDEADYYCQVWDSSSEHVVFGGGTKVTVL ?
Output: 59000

Input: What does the record list as kon for A12 Fab (Fab, V domains shown) VH: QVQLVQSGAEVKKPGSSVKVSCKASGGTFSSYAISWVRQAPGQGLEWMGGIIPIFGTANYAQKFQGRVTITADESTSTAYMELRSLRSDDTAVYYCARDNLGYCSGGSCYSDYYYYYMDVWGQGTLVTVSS VL: NFMLTQPHSVSESPGKTVTFSCTRSSGRIVSDYVHWYQQRPGSAPTTVIYEDNQRPSGVPDRFSGSIDSSSNSASLTISGLKTEDEADYYCQSYDSSNAYVVFGGGTKVTVL ?
Output: 55000

Input: What does the record list as kon for A04 Fab (Fab, V domains shown) VH: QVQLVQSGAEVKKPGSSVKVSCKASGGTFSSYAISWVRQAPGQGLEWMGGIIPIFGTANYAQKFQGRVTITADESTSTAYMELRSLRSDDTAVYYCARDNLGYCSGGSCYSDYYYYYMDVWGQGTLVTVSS VL: SYELTQPPSMSVAPGQTARITCGGDYIGGESVHWYQQKPGRAPVAVVYDDTHRPSGIPERFSGANSGNTATLTISKVEAGDEADYYCQVWDVSSDHVVFGGGTKLTVL ?
Output: 62000

Input: What does the record list as kon for C05 Fab, parental mAb 368_01_C05, with the N-glycosylation site of CDR-L3 removed (C05-NS) (Fab, V domains shown) VH: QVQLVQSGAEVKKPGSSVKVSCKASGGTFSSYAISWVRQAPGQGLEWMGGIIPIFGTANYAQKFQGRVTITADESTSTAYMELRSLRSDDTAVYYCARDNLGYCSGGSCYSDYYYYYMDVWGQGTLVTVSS VL: NFMLTQPHSVSESPGKTVTISCTRSSGSIASTYVHWYQQRPGSAPTTVIYEDNQRPSGVPDRFSGSIDSSSNSASLTISGLKTEDEADYYCQSYDSSSGSVVFGGGTKLTVL ?
Output: 51000

Input: What does the record list as kon for A01 Fab (Fab, V domains shown) VH: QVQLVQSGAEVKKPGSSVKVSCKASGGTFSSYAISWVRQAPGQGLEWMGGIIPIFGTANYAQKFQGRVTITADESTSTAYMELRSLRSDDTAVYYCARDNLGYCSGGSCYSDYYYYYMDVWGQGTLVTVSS VL: SYELTQPPSVSVAPGRTATITCEGDNIGQQIVHWYQQKPGQAPVAVISSDSDRPSGIPERFSGSNSGNTATLTISRVEAGDEADYYCQVWDSGSDHVVFGGGTKVTVL ?
Output: 44000

Input: What does the record list as kon for D11 Fab (Fab, V domains shown) VH: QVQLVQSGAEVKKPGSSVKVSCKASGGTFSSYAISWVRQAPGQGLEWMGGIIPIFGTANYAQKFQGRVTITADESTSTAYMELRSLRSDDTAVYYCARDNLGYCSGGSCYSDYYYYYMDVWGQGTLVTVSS VL: NFMLTQPRSVSESPGKTVTISCTRSSGSIGSDYVHWYQQRPGSSPTTVIYEDNQRPSGVPDRFSGSIDSSSNSASLTISGLKTEDEADYYCQSYDRSNHEVVFGGGTKLTVL ?
Output: 65000

Origin of measurements: paper PMC12439581
